Biological target: T1, Human CD3eg linker (human)
T1 construct: Single-chain construct; also called recombinant human CD3
T1 chain: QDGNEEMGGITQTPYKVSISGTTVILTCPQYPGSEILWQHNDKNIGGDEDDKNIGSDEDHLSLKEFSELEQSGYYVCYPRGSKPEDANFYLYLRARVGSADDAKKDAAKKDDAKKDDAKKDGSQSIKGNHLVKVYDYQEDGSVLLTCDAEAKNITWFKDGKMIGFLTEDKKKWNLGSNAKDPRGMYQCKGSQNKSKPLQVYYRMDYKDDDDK
Test: SPR; fold vs parent H183/L072
If the reported fold change of affinity equals or exceeds 0.9 fold, assign Met. If not, assign Not met.

Example results:
- binder: "H183/L072 VL E27aN (antibody, name in Kabat numbering, V domains shown) VH: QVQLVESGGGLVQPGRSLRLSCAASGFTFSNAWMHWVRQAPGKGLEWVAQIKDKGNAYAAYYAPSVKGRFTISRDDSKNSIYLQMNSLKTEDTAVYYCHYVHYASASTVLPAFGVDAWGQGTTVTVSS VL: DIVMTQSPLSLPVTPGEPASISCQASQNLVHMNRNTYLHWYQQKPGQAPRLLIYKVSNRFPGVPDRFSGSGSGTDFTLKISRVEAEDVGVYYCAQGTSVPFTFGQGTKLEIK"
  assigned_category: "Met"
- binder: "H183/L072 VL T97G (antibody, name in Kabat numbering, V domains shown) VH: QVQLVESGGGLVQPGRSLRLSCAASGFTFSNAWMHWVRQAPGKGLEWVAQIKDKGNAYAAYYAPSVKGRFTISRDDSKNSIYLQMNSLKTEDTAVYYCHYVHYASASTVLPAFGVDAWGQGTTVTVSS VL: DIVMTQSPLSLPVTPGEPASISCQASQELVHMNRNTYLHWYQQKPGQAPRLLIYKVSNRFPGVPDRFSGSGSGTDFTLKISRVEAEDVGVYYCAQGTSVPFGFGQGTKLEIK"
  assigned_category: "Met"
- binder: "H183/L072 VL V27cM (antibody, name in Kabat numbering, V domains shown) VH: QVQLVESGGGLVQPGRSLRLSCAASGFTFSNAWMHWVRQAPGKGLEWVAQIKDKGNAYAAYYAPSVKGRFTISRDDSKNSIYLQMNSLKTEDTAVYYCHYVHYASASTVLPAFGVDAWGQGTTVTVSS VL: DIVMTQSPLSLPVTPGEPASISCQASQELMHMNRNTYLHWYQQKPGQAPRLLIYKVSNRFPGVPDRFSGSGSGTDFTLKISRVEAEDVGVYYCAQGTSVPFTFGQGTKLEIK"
  assigned_category: "Met"
- binder: "H183/L072 VL N28E (antibody, name in Kabat numbering, V domains shown) VH: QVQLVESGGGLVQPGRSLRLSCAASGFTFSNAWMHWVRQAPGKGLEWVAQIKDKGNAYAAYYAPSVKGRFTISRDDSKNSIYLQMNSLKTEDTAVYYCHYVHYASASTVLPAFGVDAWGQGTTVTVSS VL: DIVMTQSPLSLPVTPGEPASISCQASQELVHMERNTYLHWYQQKPGQAPRLLIYKVSNRFPGVPDRFSGSGSGTDFTLKISRVEAEDVGVYYCAQGTSVPFTFGQGTKLEIK"
  assigned_category: "Not met"

Hello, I need to know if H183/L072 VL N28G (antibody, name in Kabat numbering, V domains shown) VH: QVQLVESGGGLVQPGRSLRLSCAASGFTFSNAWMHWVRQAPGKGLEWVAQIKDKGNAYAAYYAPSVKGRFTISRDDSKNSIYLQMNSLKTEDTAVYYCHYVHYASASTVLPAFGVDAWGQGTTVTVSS VL: DIVMTQSPLSLPVTPGEPASISCQASQELVHMGRNTYLHWYQQKPGQAPRLLIYKVSNRFPGVPDRFSGSGSGTDFTLKISRVEAEDVGVYYCAQGTSVPFTFGQGTKLEIK has measured fold change of affinity not below 0.9 fold. Thanks!
Not met

H183/L072 VL A25D (antibody, name in Kabat numbering, V domains shown) VH: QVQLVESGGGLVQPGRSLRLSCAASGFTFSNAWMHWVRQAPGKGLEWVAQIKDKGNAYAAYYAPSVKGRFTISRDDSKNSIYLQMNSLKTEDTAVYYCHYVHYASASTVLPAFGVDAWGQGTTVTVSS VL: DIVMTQSPLSLPVTPGEPASISCQDSQELVHMNRNTYLHWYQQKPGQAPRLLIYKVSNRFPGVPDRFSGSGSGTDFTLKISRVEAEDVGVYYCAQGTSVPFTFGQGTKLEIK , same question.
Not met

H183/L072 VL R54W (antibody, name in Kabat numbering, V domains shown) VH: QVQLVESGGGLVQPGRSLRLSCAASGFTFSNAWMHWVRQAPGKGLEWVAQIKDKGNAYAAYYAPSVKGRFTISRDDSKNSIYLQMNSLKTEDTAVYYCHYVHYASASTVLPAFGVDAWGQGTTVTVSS VL: DIVMTQSPLSLPVTPGEPASISCQASQELVHMNRNTYLHWYQQKPGQAPRLLIYKVSNWFPGVPDRFSGSGSGTDFTLKISRVEAEDVGVYYCAQGTSVPFTFGQGTKLEIK , same question.
Met

H183/L072 VL F96K (antibody, name in Kabat numbering, V domains shown) VH: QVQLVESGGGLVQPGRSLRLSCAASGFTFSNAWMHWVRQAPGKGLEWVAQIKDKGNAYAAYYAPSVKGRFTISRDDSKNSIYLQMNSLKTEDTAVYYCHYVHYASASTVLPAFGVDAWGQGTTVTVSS VL: DIVMTQSPLSLPVTPGEPASISCQASQELVHMNRNTYLHWYQQKPGQAPRLLIYKVSNRFPGVPDRFSGSGSGTDFTLKISRVEAEDVGVYYCAQGTSVPKTFGQGTKLEIK , same question.
Not met

These measurements were taken from patent US20210388087A1.
